Numbers sourced from patent US6936636B2.

target of assay: RXRα (Homo sapiens)
Construct: expressed in transfected cells
assay details: holoreceptor transactivation assay
Format: cell-based
conditions: efficacy as percentage compared to the standard compound
Kind request: treat 40% as inclusive, so Transactivation % Efficiency RXRα at 40% or higher is True, anything lower is False.

Assess whether reported Transactivation % Efficiency RXRα for COCC1[C@@H](/C=C/C(C)=C/C(=O)O)C1(C)c1cc(C(C)C)cc(C(C)C)c1 (stereo in doubt) [Compound 29] sits at 40% or higher.
False

Further cases:
Assess whether reported Transactivation % Efficiency RXRα for COCC1[C@@H](/C=C/C(C)=C/C(=O)O)C1(C)c1cc(C(C)C)cc(C(C)C)c1 (stereo in doubt) [Compound 31a] sits at 40% or higher.
True

Assess whether reported Transactivation % Efficiency RXRα for COC[C@@H]1[C@@H](/C=C/C(C)=C/C(=O)O)C1(C)c1ccc2c(c1)C(C)(C)CCC2(C)C (stereo in doubt) [Compound 23a] sits at 40% or higher.
False

====

target of assay: RXRα (Homo sapiens)
Sequence (P19793 1-462): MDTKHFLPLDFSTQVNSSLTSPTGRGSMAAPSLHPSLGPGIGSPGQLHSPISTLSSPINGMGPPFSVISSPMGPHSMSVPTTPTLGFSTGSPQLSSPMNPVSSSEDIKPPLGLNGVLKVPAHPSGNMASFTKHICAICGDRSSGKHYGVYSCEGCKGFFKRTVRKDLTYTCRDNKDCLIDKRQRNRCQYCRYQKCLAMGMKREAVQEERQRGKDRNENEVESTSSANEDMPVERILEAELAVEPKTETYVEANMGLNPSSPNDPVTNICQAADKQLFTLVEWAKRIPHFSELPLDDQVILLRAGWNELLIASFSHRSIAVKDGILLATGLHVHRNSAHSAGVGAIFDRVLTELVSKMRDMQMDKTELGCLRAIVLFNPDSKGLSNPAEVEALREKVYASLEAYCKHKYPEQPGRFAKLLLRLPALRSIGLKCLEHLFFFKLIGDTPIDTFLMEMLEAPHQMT
value type: Ki

# input molecule: COC[C@H]1[C@@H](/C=C/C(C)=C/C(=O)O)[C@@]1(C)c1ccc2c(c1)C(C)(C)CCC2(C)C (stereo in doubt) [Compound 21a] ; wanted: its Ki
5 nM

# input molecule: CCOC[C@@H]1[C@@H](/C=C/C(C)=C/C(=O)O)C1(C)c1ccc2c(c1)C(C)(C)CCC2(C)C (stereo in doubt) [Compound 23b] ; wanted: its Ki
27 nM

Further cases:
# input molecule: COC[C@@H]1[C@@H](/C=C/C(C)=C/C(=O)O)C1(C)c1ccc2c(c1)C(C)(C)CCC2(C)C (stereo in doubt) [Compound 23a] ; wanted: its Ki
18 nM

# input molecule: COCC1[C@@H](/C=C/C(C)=C/C(=O)O)C1(C)c1cc(C(C)C)cc(C(C)C)c1 (stereo in doubt) [Compound 31a] ; wanted: its Ki
7.6 nM

# input molecule: CCOC[C@H]1[C@@H](/C=C/C(C)=C/C(=O)O)C1(C)c1ccc2c(c1)C(C)(C)CCC2(C)C (stereo in doubt) [Compound 21b] ; wanted: its Ki
17 nM

====

Measured pEC50, listed per entry for reference.
target of assay: RXRα (Homo sapiens)
assay details: holoreceptor transactivation assay
conditions: holoreceptor assay
pEC50 here is simply -log10 of the concentration when that concentration is written in mol/L.

# annotated cases, reported pEC50 shown
# input compound: COCC1[C@@H](/C=C/C(C)=C/C(=O)O)C1(C)c1cc(C(C)C)cc(C(C)C)c1 (stereo in doubt) [Compound 31a] ; wanted: its pEC50
8.57

# input compound: CCOC[C@H]1[C@@H](/C=C/C(C)=C/C(=O)O)C1(C)c1ccc2c(c1)C(C)(C)CCC2(C)C (stereo in doubt) [Compound 21b] ; wanted: its pEC50
7.55

# input compound: COC[C@H]1[C@@H](/C=C/C(C)=C/C(=O)O)[C@@]1(C)c1ccc2c(c1)C(C)(C)CCC2(C)C (stereo in doubt) [Compound 21a] ; wanted: its pEC50
8.40

# input compound: COC[C@@H]1[C@@H](/C=C/C(C)=C/C(=O)O)C1(C)c1ccc2c(c1)C(C)(C)CCC2(C)C (stereo in doubt) [Compound 23a] ; wanted: its pEC50
7.57

Further cases:
# input compound: COCC1[C@@H](/C=C/C(C)=C/C(=O)O)C1(C)c1cc(C(C)C)cc(C(C)C)c1 (stereo in doubt) [Compound 29] ; wanted: its pEC50
8.30
